# measured_on: p53 Y220C mutant protein (amino acid residues 94-293) (Homo sapiens, UniProt P04637, Y220C)
# Construct: p53 Y220C mutant protein (amino acid residues 94-293)
# assay_protocol: Surface Plasmon Resonance (SPR) assay, Kd_kinetic
# Type: binding
# test_parameters: SPR, kinetic KD, p53 Y220C; read-out: SPR P53 Y220C KD kinetic
# Procedure: Surface Plasmon Resonance (SPR) Assay Protocol SPR experiments were performed on a Biacore 8K instrument. […] The running buffer contained 50 mM Tris, pH 7.5, 100 mM NaCl, 1 mM DTT, 0.01% Brij35, 0.05% Tween-20 and 1% DMSO. The assay temperature was maintained at 16 or 20 °C and data were fit into the 1:1 binding model using the Biacore Insight Evaluation software.
value_kind: Kd

[[record]]
molecule = "CNC(=O)c1ccc(NCC#Cc2nc3c(N[C@@H]4CCN(C)CC4(F)F)cccn3c2CC(F)(F)F)c(OC)c1 (single isomer, unassigned) [Example 37]"
value_kind = "Kd"
result = "> 1 µM"


Data point: CNC(=O)c1ccc(NCC#Cc2nc3c(N[C@@H]4CCn5cncc5C4)cccn3c2SC(F)(F)F)c(OC)c1 [Example 176] ; Kd = 0.01 to 0.1 µM

Data point: CNC(=O)c1ccc(N[C@H](C)C#Cc2nc3c(N[C@@H]4CCN(C)C[C@@H]4F)cccn3c2SC(F)(F)F)c(OC)c1 [Example 133] ; Kd = 0.01 to 0.1 µM

Data point: CC#Cc1nc2c(NC3CCN(C)CC3)cccn2c1CC(F)(F)F [Example 19] ; Kd = 0.1 to 1 µM

Data point: COc1ccc(C(=O)NC2CC2)cc1NCC#Cc1nc2c(N[C@@H]3CCN(C)C[C@@H]3F)cccn2c1SC(F)(F)F [Example 109] ; Kd = < 0.01 µM

Data point: CNC(=O)c1ccc(NCC#Cc2nn3c(N[C@@H]4CCN(C)C[C@@H]4F)nccc3c2SC(F)(F)F)c(OC)c1 [Example 214] ; Kd = < 0.01 µM

Data point: COc1cc(S(C)(=O)=O)ccc1NCC#Cc1nc2c(NC3CCN(CCS(C)(=O)=O)CC3)cccn2c1CC(F)(F)F [Example 5] ; Kd = 0.01 to 0.1 µM

###

Listed next: entries and their corresponding Emax.
# measured_on: p53 Y220C (Homo sapiens, UniProt P04637, Y220C)
# assay_protocol: Luciferase Reporter Assay (Luc), p53 response element, NClH1299 cells with inducible p53 Y220C
# Assay type: cell-based
# test_parameters: Emax; luciferase reporter, NClH1299 inducible p53 Y220C, 6 hour

The examples below pair each entry with its known result.
[[record]]
compound = "CNC(=O)c1ccc(NCC#Cc2cc3c(N[C@@H]4CCN(C)C[C@@H]4F)nccn3c2SC(F)(F)F)c(F)c1 [Example 302]"
measured_on = "p53 Y220C (Homo sapiens, UniProt P04637, Y220C)"
value_kind = "Emax"
result = "> 90%"

[[record]]
compound = "CN1CC[C@@H](Nc2cccn3c(SC(F)(F)F)c(C#CCNc4ccc(C(=O)NCC5(O)CC5)cc4)cc23)[C@@H](F)C1 [Example 427]"
measured_on = "p53 Y220C (Homo sapiens, UniProt P04637, Y220C)"
value_kind = "Emax"
result = "> 90%"

[[record]]
compound = "CNC(=O)c1ccc(NCC#Cc2nn3c(N[C@@H]4CCNC[C@@H]4F)cccc3c2SC(F)(F)F)c(OC)c1 [Example 272]"
measured_on = "p53 Y220C (Homo sapiens, UniProt P04637, Y220C)"
value_kind = "Emax"
result = "80 to 90%"

[[record]]
compound = "CNC(=O)c1ccc(OC)c(NCC#Cc2nc3c(N[C@@H]4CCN(CCOC)C[C@@H]4F)cccn3c2SC(F)(F)F)c1 [Example 296]"
measured_on = "p53 Y220C (Homo sapiens, UniProt P04637, Y220C)"
value_kind = "Emax"
result = "80 to 90%"

[[record]]
compound = "CCNC(=O)c1cnc(OC)c(NCC#Cc2nc3c(N[C@@H]4CCN(C)C[C@@H]4F)cccn3c2SC(F)(F)F)c1 [Example 293]"
measured_on = "p53 Y220C (Homo sapiens, UniProt P04637, Y220C)"
value_kind = "Emax"
result = "80 to 90%"

[[record]]
compound = "CNC(=O)c1cc(NCC#Cc2nc3c(N[C@@H]4CCN(C)C[C@@H]4F)cccn3c2SC(F)(F)F)c(OC)nn1 [Example 259]"
measured_on = "p53 Y220C (Homo sapiens, UniProt P04637, Y220C)"
value_kind = "Emax"
result = "> 90%"


Proceeding to the next compound to report its Emax.
Kindly note: p53 Y220C (Homo sapiens, UniProt P04637, Y220C), CNC(=O)c1cnc(OC)c(NCC#Cc2cc3c(N[C@@H]4CN(C)C[C@@H]4F)nccn3c2SC(F)(F)F)c1 [Example 330] , Emax value reported: > 90%
